- METHOD: qHTS assay to identify small molecule antagonists of the peroxisome proliferator-activated receptor gamma (PPARg) signaling pathway - cell viability counter screen (AID 743194); note: nearly all actives have a fitted effect of over 55% in size
- EXPERIMENTAL_PARAMETERS: PPARg-bla HEK293H viability, CellTiter-Glo luminescence, 17 h; co-treated with 50 nM rosiglitazone; series mostly up to 62.6 µM
Records with an inconclusive call do not appear. Calls of active or inactive are those of the source. Calls come from the whole dose curve; as a rule, active = well fitted cell-killing curve with a large enough effect in the repeat runs; inconclusive = weak or mixed curves, or effect the other way; inactive = no such curve, though single readings can be large or run the other way.
Respond using exactly one of the listed classes: active, inactive

A selection of reference data follows.
O=C(CBr)OCc1ccccc1 ... inactive
Clc1cccc(SC2CCNCC2)n1 ... inactive
O=Cc1ccc2c(c1)OCO2 ... inactive
Clc1cccc2ccccc12 ... inactive
CO/N=C(/C(=O)OC)c1ccccc1COc1ccccc1C ... inactive

Exam item: What was the test verdict on C[C@@H]1CC[C@H]2[C@@H](C)C(=O)O[C@@H]3O[C@@]4(C)CC[C@@H]1[C@]32OO4 ?
Marked response: inactive

Exam item: What was the test verdict on O=C1C(Cl)C(CCl)CN1c1cccc(C(F)(F)F)c1 (configuration not stated) ?
Marked response: inactive

Exam item: What was the test verdict on NS(=O)(=O)C(F)(F)C(F)(F)C(F)(F)C(F)(F)C(F)(F)C(F)(F)C(F)(F)C(F)(F)F ?
Marked response: active

Exam item: What was the test verdict on CN1C(=O)C(O)N=C(c2ccccc2)c2cc(Cl)ccc21 (configuration not stated) ?
Marked response: inactive

====

- METHOD: Human pregnane X receptor (PXR) small molecule agonists, qHTS cell viability counter screen (AID 1346977); note: nearly all actives have a fitted effect of over 50% in size
- EXPERIMENTAL_PARAMETERS: PXR-Luc HepG2 viability, CellTiter-Fluor, 24 h; series mostly up to 92.4 µM
Results filed as inconclusive are left out. The source made the active and inactive calls. Calls come from the whole dose curve; as a rule, active = well fitted cell-killing curve with a large enough effect in the repeat runs; inconclusive = weak or mixed curves, or effect the other way; inactive = flat fitted curve, though single readings scatter.
Respond using exactly one of the listed classes: 1 (yes) = active, 0 (no) = inactive

A selection of reference data follows.
Cn1sc(Cl)cc1=O ... 0 (no)
BrCC(Br)C1CCC(Br)C(Br)C1 (configuration not stated) ... 0 (no)

Exam item: What was the test verdict on CCC(Cl)CCl (configuration not stated) ?
Marked response: 0 (no)

Exam item: What was the test verdict on O=NN1CCCCCC1 ?
Marked response: 0 (no)

Exam item: What was the test verdict on N#CCc1ccccc1 ?
Marked response: 0 (no)

Exam item: What was the test verdict on CCCN(CCCl)c1c([N+](=O)[O-])cc(C(F)(F)F)cc1[N+](=O)[O-] ?
Marked response: 0 (no)

Exam item: What was the test verdict on Cc1ccccc1C(=O)Nc1cccc(OC(C)C)c1 ?
Marked response: 0 (no)

Exam item: What was the test verdict on CN1C[C@H](CNC(=O)OCc2ccccc2)C[C@@H]2c3cccc4c3c(cn4C)C[C@H]21 ?
Marked response: 1 (yes)

Exam item: What was the test verdict on COC(=O)c1cncn1C(C)c1ccccc1 (configuration not stated) ?
Marked response: 0 (no)

Exam item: What was the test verdict on Cl/C=C\Cl ?
Marked response: 0 (no)

Exam item: What was the test verdict on CC(C)(OO)c1ccccc1 ?
Marked response: 0 (no)

Exam item: What was the test verdict on c1cc2ccc3cccc4ccc(c1)c2c34 ?
Marked response: 0 (no)

Exam item: What was the test verdict on C=CC(=O)OCC(C)O (configuration not stated) ?
Marked response: 0 (no)

Exam item: What was the test verdict on CC(C)=CCOc1c2occc2cc2ccc(=O)oc12 ?
Marked response: 0 (no)

Exam item: What was the test verdict on CCCCCCCCOC(=O)c1ccc(C(=O)OCCCCCCCC)c(C(=O)OCCCCCCCC)c1 ?
Marked response: 0 (no)

Exam item: What was the test verdict on CC1(C)[C@H](C=C(Cl)Cl)[C@@H]1C(=O)O[C@@H](C#N)c1cccc(Oc2ccccc2)c1 ?
Marked response: 0 (no)

Exam item: What was the test verdict on CCOc1nc(F)cc2nc(S(=O)(=O)Nc3c(Cl)cccc3Cl)nn12 ?
Marked response: 0 (no)

Exam item: What was the test verdict on COP(=S)(OC)Oc1ccc([N+](=O)[O-])cc1Cl ?
Marked response: 1 (yes)

Exam item: What was the test verdict on C=CC(C)=O ?
Marked response: 0 (no)

Exam item: What was the test verdict on O=C(N[C@H](c1ccccc1)[C@@H]1CN2CCC1CC2)c1c(Cl)ccc(C(F)(F)F)c1Cl ?
Marked response: 1 (yes)

Exam item: What was the test verdict on CCCCCCC#N ?
Marked response: 0 (no)

Where these numbers come from: PubChem BioAssay (Tox21)
